Test system: Ri-1 cells
Test: BTK (wt) cell proliferation, Ri-1 (CellTiter-Glo, 72 h);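 note: viable cells quantified as cellular ATP luminescence, proliferation normalized to a time-zero plate and the DMSO control, compounds tested across a dilution series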
Type: cell-based
Details: Ri-1, 72 h, Ri-1 cells, 72 h, CellTiter-Glo; read-out: BTK WT Ri-1 GI50
READOUT LABEL: GI50 (µM)

COMPOUND: C=CC(=O)Nc1cc(Nc2ncc(Cl)c(Nc3cc(Cl)c(F)cc3C(C)(C)O)n2)c(OC)cc1N1CC[C@@H](N(C)C)C1
READOUT LABEL: GI50
QUALIFIER OPERATOR: =
DATA VALUE: 0.082
//
COMPOUND: C=CC(=O)Nc1cc(Nc2ncnc(Nc3cnc(F)cc3C(C)(C)O)n2)c(OC)cc1N(C)CCN(C)C
READOUT LABEL: GI50
QUALIFIER OPERATOR: >
DATA VALUE: 3
//
COMPOUND: C=CC(=O)Nc1cc(Nc2ncnc(Nc3cc(Cl)c(F)cc3C(C)(C)O)n2)c(OC)cc1N1CC[C@@H](N(C)C)C1
READOUT LABEL: GI50
QUALIFIER OPERATOR: =
DATA VALUE: 0.002
//
COMPOUND: C=CC(=O)Nc1cc(Nc2ncnc(Nc3cc(Cl)c(F)cc3C(C)(C)O)n2)c(OC)cc1N1CCOC[C@@H]1CN(C)C
READOUT LABEL: GI50
QUALIFIER OPERATOR: =
DATA VALUE: 0.0119
//
COMPOUND: C=CC(=O)Nc1cc(Nc2ncnc(Nc3ccccc3C3(O)COC3)n2)c(OC)cc1N(C)CCN(C)C
READOUT LABEL: GI50
QUALIFIER OPERATOR: >
DATA VALUE: 3
//
COMPOUND: C=CC(=O)Nc1cc(Nc2ncc(C#N)c(Nc3cc(Cl)c(F)cc3C(C)(C)O)n2)c(OC)cc1N1CC[C@@H](N(C)C)C1
READOUT LABEL: GI50
QUALIFIER OPERATOR: =
DATA VALUE: 0.011
//
COMPOUND: C=CC(=O)Nc1cc(Nc2ncnc(Nc3cc(F)c(Cl)cc3C(C)(C)O)n2)c(OC)cc1N1CC[C@@H]1CN(C)C
READOUT LABEL: GI50
QUALIFIER OPERATOR: =
DATA VALUE: 0.084
//
COMPOUND: [2H]C([2H])([2H])N(CCN(C)c1cc(OC)c(Nc2ncnc(Nc3cc(F)c(Cl)cc3C(C)(C)O)n2)cc1NC(=O)C=C)C([2H])([2H])[2H]
READOUT LABEL: GI50
QUALIFIER OPERATOR: =
DATA VALUE: 0.0346
//
COMPOUND: C=CC(=O)Nc1cc(Nc2ncnc(Nc3cc4cc[nH]c4cc3C(C)(C)O)n2)c(OC)cc1N(C)CCN(C)C
READOUT LABEL: GI50
QUALIFIER OPERATOR: =
DATA VALUE: 0.971
//
COMPOUND: C=CC(=O)Nc1cc(Nc2ncnc(Nc3cc(F)c(F)cc3C(C)(C)O)n2)c(OC)cc1N1CC[C@@H](N(C)C)C1
READOUT LABEL: GI50
QUALIFIER OPERATOR: =
DATA VALUE: 0.12
//
COMPOUND: C=CC(=O)Nc1cc(Nc2ncnc(Nc3cc(F)c(F)cc3C(C)(C)O)n2)c(OC)cc1N1CC[C@@H]1CN(C)C
READOUT LABEL: GI50
QUALIFIER OPERATOR: =
DATA VALUE: 0.133
//
COMPOUND: C=CC(=O)Nc1cc(Nc2ncnc(Nc3cc(F)c(F)cc3C(C)(O)CC)n2)c(OC)cc1N1CC[C@@H](N(C)C)C1 (stereo partly shown)
READOUT LABEL: GI50
QUALIFIER OPERATOR: =
DATA VALUE: 0.371
//
COMPOUND: C=CC(=O)Nc1cc(Nc2ncnc(Nc3cc(F)c(F)cc3C(C)(O)CC)n2)c(OC)cc1N1CC[C@@H]2CN(C)C[C@@H]21 (stereo partly shown)
READOUT LABEL: GI50
QUALIFIER OPERATOR: =
DATA VALUE: 0.208

Every entry's value here was drawn from patent US20230293535A1.
